Origin of the recorded values: paper PMC11062922

system: MAPK10; design: species or system human, MV4-11 + K-562 + COLO205 + SK-N-BE2 + OVCAR-8; settings: read-out: apparent Kd; compound concentrations:100 nM and 1000 nM (sheet 'Samples'); n = 1
Simple rule here: potency estimated from few doses less than 1000 nM is true, otherwise false.

Example entries begin here.
INSERT INTO assay_data (compound, label_class) VALUES
  ('Nc1nc(N)c2nc(-c3ccccc3)[nH]c2n1', 'true'),
  ('CS(=O)(=O)CCCn1c(=O)c(Oc2ccc(F)cc2F)cc2cnc(NC3CCOCC3)nc21', 'true'),
  ('CC(C)Oc1ccc2c(-c3ccnc(Nc4ccc(N5CCN(C)CC5)cc4)n3)cnn2n1 [GW696155X]', 'false'),
  ('CNc1ncc2cc(Oc3ccc(F)cc3F)c(=O)n(C)c2n1', 'false'),
  ('Cc1cccc(-c2cc(-c3c[nH]nc3-c3ccccn3)ccn2)c1 [GW679395X]', 'false');

Attention now shifts to the item below.
Strictly below 1000 nM in potency estimated from few doses? CS(=O)(=O)CCn1c(=O)c(Oc2ccc(F)cc2F)cc2cnc(NC3CCOCC3)nc21
true
